Tested on: Escherichia coli TOP10
run.description: shrunken log2 fold change of peptide-encoding DNA abundance (4.5 h post-induction vs induction); higher = less antimicrobial activity (less host growth inhibition)
condition.set: time post-induction: 4.5 h; library: site-saturation at positions 5, 18, 19, 20
Kindly supply the reported shrunken log2 fold change values for the records listed here.
Answers are plain numbers.

Respectfully, I request shrunken log2 fold change for each entry included below.
1. RRIRDRPPRLPRPRPRPEWTPRP
2. RRIRERPPRLPRPRPRPGMLPRP
3. RRIRPRPPRLPRPRPRPIASPRP
4. RRIRRRPPRLPRPRPRPYSTPRP
5. RRIRYRPPRLPRPRPRPAWIPRP
6. RRIRLRPPRLPRPRPRPLFIPRP
7. RRIRTRPPRLPRPRPRPTNMPRP
8. RRIRWRPPRLPRPRPRPDIWPRP

Ans:
1. 0.147
2. -0.0705
3. -0.0044
4. -0.295
5. -0.259
6. -0.539
7. -0.409
8. 0.642

###

Test system: Escherichia coli TOP10
run.description: shrunken log2 fold change of peptide-encoding DNA abundance (4.5 h post-induction vs induction); higher = less antimicrobial activity (less host growth inhibition)
condition.set: time post-induction: 4.5 h; library: site-saturation at positions 5, 18, 19, 20
Categories are defined by ranges of shrunken log2 fold change, namely lower band = under -0.2, central band = from -0.2 up to 0.01, upper band = 0.01 and over

Reference set, count: 2
RRIRARPPRLPRPRPRPFKRPRP	upper band
RRIRFRPPRLPRPRPRPYEFPRP	lower band

Q: Which class holds RRIRFRPPRLPRPRPRPFYEPRP ?
Ans: lower band

Q: Which class holds RRIRVRPPRLPRPRPRPVDSPRP ?
Ans: upper band

Q: Which class holds RRIRPRPPRLPRPRPRPIIRPRP ?
Ans: central band

###

System: Escherichia coli TOP10
run.description: shrunken log2 fold change of peptide-encoding DNA abundance (4.5 h post-induction vs induction); higher = less antimicrobial activity (less host growth inhibition)
condition.set: time post-induction: 4.5 h; library: site-saturation at positions 5, 18, 19, 20
measurement.kind: shrunken log2 fold change
Numbers only.

As a guide, the following entries are already answered.
RRIRARPPRLPRPRPRPYPCPRP	-0.417
RRIRNRPPRLPRPRPRPVYYPRP	-0.562
RRIRKRPPRLPRPRPRPRYRPRP	-0.0384

Respectfully, I request shrunken log2 fold change for each entry included below.
1. RRIRERPPRLPRPRPRPAEMPRP
2. RRIRIRPPRLPRPRPRPIQIPRP
3. RRIRMRPPRLPRPRPRPCAAPRP

Ans:
[-0.0352, -0.0257, 2.26]

Respectfully, I request shrunken log2 fold change for each entry included below.
1. RRIRCRPPRLPRPRPRPHTHPRP
2. RRIRLRPPRLPRPRPRPQRNPRP

Ans:
1. -0.676
2. -0.789

###

Tested on: Escherichia coli TOP10
run.description: shrunken log2 fold change of peptide-encoding DNA abundance (4.5 h post-induction vs induction); higher = less antimicrobial activity (less host growth inhibition)
condition.set: time post-induction: 4.5 h; library: site-saturation at positions 5, 18, 19, 20
Categories are defined by ranges of shrunken log2 fold change, namely class A = under -0.1, class B = from -0.1 up to 0.0004, class C = 0.0004 and over

RRIRSRPPRLPRPRPRPFWFPRP	class A

Q: Which class holds RRIRWRPPRLPRPRPRPIMEPRP ?
Ans: class C

Q: Which class holds RRIRKRPPRLPRPRPRPPTTPRP ?
Ans: class C

Q: Which class holds RRIRPRPPRLPRPRPRPAYRPRP ?
Ans: class B

Q: Which class holds RRIRHRPPRLPRPRPRPFRGPRP ?
Ans: class A

Q: Which class holds RRIRHRPPRLPRPRPRPLRCPRP ?
Ans: class C

Q: Which class holds RRIRCRPPRLPRPRPRPHAIPRP ?
Ans: class A

Q: Which class holds RRIRARPPRLPRPRPRPMYHPRP ?
Ans: class A

###

Tested on: Escherichia coli TOP10
run.description: shrunken log2 fold change of peptide-encoding DNA abundance (4.5 h post-induction vs induction); higher = less antimicrobial activity (less host growth inhibition)
condition.set: time post-induction: 4.5 h; library: site-saturation at positions 5, 18, 19, 20
Kindly supply the reported shrunken log2 fold change values for the records listed here.

Respectfully, I request shrunken log2 fold change for each entry included below.
1. RRIRERPPRLPRPRPRPAFRPRP
2. RRIRCRPPRLPRPRPRPVAQPRP
3. RRIRLRPPRLPRPRPRPIDQPRP

Ans:
1. -0.0607
2. 0.159
3. 0.281

Respectfully, I request shrunken log2 fold change for each entry included below.
1. RRIRTRPPRLPRPRPRPRVQPRP
2. RRIRNRPPRLPRPRPRPVFFPRP
3. RRIRCRPPRLPRPRPRPWVLPRP
4. RRIRYRPPRLPRPRPRPGWSPRP
5. RRIRPRPPRLPRPRPRPDRIPRP
6. RRIRERPPRLPRPRPRPQEGPRP
7. RRIRTRPPRLPRPRPRPWNTPRP
8. RRIRRRPPRLPRPRPRPMYIPRP

Ans:
-0.2
-0.223
-0.265
-0.135
-0.15
0.0271
-0.0118
-0.73

###

Kindly supply the reported shrunken log2 fold change values for the records listed here.
Tested on: Escherichia coli TOP10
run.description: shrunken log2 fold change of peptide-encoding DNA abundance (4.5 h post-induction vs induction); higher = less antimicrobial activity (less host growth inhibition)
condition.set: time post-induction: 4.5 h; library: site-saturation at positions 5, 18, 19, 20
Answers are plain numbers.

RRIRRRPPRLPRPRPRPWIRPRP	-0.298
RRIRQRPPRLPRPRPRPTQGPRP	2.34
RRIRWRPPRLPRPRPRPLYFPRP	-0.613
RRIRYRPPRLPRPRPRPAWMPRP	-0.0583
RRIRKRPPRLPRPRPRPYTGPRP	-0.318
RRIRLRPPRLPRPRPRPAVTPRP	-0.0968
RRIRWRPPRLPRPRPRPRTNPRP	0.0699
RRIRARPPRLPRPRPRPMPGPRP	-0.0941
RRIRLRPPRLPRPRPRPTIIPRP	0.0804
RRIRNRPPRLPRPRPRPNMFPRP	-0.00614

Respectfully, I request shrunken log2 fold change for each entry included below.
1. RRIRVRPPRLPRPRPRPYEFPRP
2. RRIRFRPPRLPRPRPRPACCPRP
3. RRIRFRPPRLPRPRPRPKEAPRP
4. RRIRVRPPRLPRPRPRPCDQPRP
5. RRIRRRPPRLPRPRPRPPNHPRP
6. RRIRERPPRLPRPRPRPQTCPRP
7. RRIRHRPPRLPRPRPRPLKSPRP

Ans:
[2.15, 0.229, 0.084, -0.0149, 0.234, -0.0436, -0.178]

Respectfully, I request shrunken log2 fold change for each entry included below.
1. RRIRWRPPRLPRPRPRPKHMPRP
2. RRIRFRPPRLPRPRPRPARPPRP
3. RRIRIRPPRLPRPRPRPFLFPRP
4. RRIRARPPRLPRPRPRPQKQPRP

Ans:
1: -0.063; 2: 0.287; 3: -0.586; 4: -0.00111

Respectfully, I request shrunken log2 fold change for each entry included below.
1. RRIRIRPPRLPRPRPRPKFSPRP
2. RRIRSRPPRLPRPRPRPNMPPRP
3. RRIRMRPPRLPRPRPRPKHFPRP
4. RRIRYRPPRLPRPRPRPSPKPRP

Ans:
-0.244
-0.278
0.176
-0.105

Respectfully, I request shrunken log2 fold change for each entry included below.
1. RRIRQRPPRLPRPRPRPQYGPRP
2. RRIRNRPPRLPRPRPRPNVPPRP
3. RRIRFRPPRLPRPRPRPEVAPRP
4. RRIRQRPPRLPRPRPRPVTVPRP
5. RRIRGRPPRLPRPRPRPDCAPRP
6. RRIRIRPPRLPRPRPRPQVPPRP
7. RRIRERPPRLPRPRPRPPVMPRP

Ans:
1: -0.0763; 2: -0.128; 3: -0.088; 4: 0.153; 5: 1.53; 6: 0.00863; 7: 0.0499

###

Tested on: Escherichia coli TOP10;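 note: peptides expressed intracellularly from a pBAD plasmid library in pooled LB shake-flask culture, induced with 0.3% L-arabinose, DNA abundance read by NGS, three biological replicates, DESeq2 with apeglm shrinkage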
run.description: shrunken log2 fold change of peptide-encoding DNA abundance (4.5 h post-induction vs induction); higher = less antimicrobial activity (less host growth inhibition)
condition.set: time post-induction: 4.5 h; library: site-saturation at positions 5, 18, 19, 20
measurement.kind: shrunken log2 fold change
Give bare numbers.

As a guide, the following entries are already answered.
RRIRDRPPRLPRPRPRPHRRPRP	-0.247
RRIRLRPPRLPRPRPRPSIVPRP	-0.294
RRIRMRPPRLPRPRPRPAATPRP	0.573
RRIRGRPPRLPRPRPRPRKGPRP	0.148
RRIRGRPPRLPRPRPRPSFGPRP	0.0834
RRIRCRPPRLPRPRPRPGSIPRP	-0.311

Respectfully, I request shrunken log2 fold change for each entry included below.
1. RRIRMRPPRLPRPRPRPWKYPRP
2. RRIRPRPPRLPRPRPRPYYSPRP
3. RRIRARPPRLPRPRPRPKCYPRP
4. RRIRHRPPRLPRPRPRPCAVPRP
5. RRIRYRPPRLPRPRPRPSQCPRP
6. RRIRNRPPRLPRPRPRPKAHPRP
7. RRIRQRPPRLPRPRPRPNEDPRP
8. RRIRYRPPRLPRPRPRPYDWPRP

Ans:
[-0.198, -0.246, 0.00925, -0.0171, -0.115, 0.18, 0.031, -0.886]

Respectfully, I request shrunken log2 fold change for each entry included below.
1. RRIRQRPPRLPRPRPRPYGFPRP
2. RRIRSRPPRLPRPRPRPSWQPRP
3. RRIRLRPPRLPRPRPRPIQVPRP

Ans:
1. 0.0147
2. -0.227
3. -0.072

Respectfully, I request shrunken log2 fold change for each entry included below.
1. RRIRYRPPRLPRPRPRPLGDPRP
2. RRIRVRPPRLPRPRPRPHCFPRP
3. RRIRTRPPRLPRPRPRPAESPRP
4. RRIRQRPPRLPRPRPRPGGDPRP
5. RRIRWRPPRLPRPRPRPRCKPRP
6. RRIRYRPPRLPRPRPRPRYMPRP
7. RRIRMRPPRLPRPRPRPDHWPRP

Ans:
1. -0.079
2. -0.147
3. 0.0351
4. 0.0869
5. 0.33
6. -0.33
7. 0.617
